Listed next: entries and their corresponding protein stability index.
B1: ZNF449 (parent)
chain: TLHQRTHTEERPFKCNYCGKSFRQ

variants of: B1; test: protein stability index of a GFP-peptide fusion (GPS, HEK-293T) (PSI 1-6); higher = more stable; conditions: c terminus: a fixed tail appended;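 note: lentivirally expressed fusions sorted by FACS into six bins by GFP to DsRed ratio, PSI derived from sequencing read proportions per bin multiplied by bin number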
Answer as a number with no unit attached.

Guide cases for protein stability index, answers given:
K20E	1.79
F22H	3.05
T8H	1.18
L2V	2.4
F13A	2.14
N16Y	2.61
F22E	3.02
F22Y	2.35
Q24N	2.27
H3C	3.27

Param item = H7L ; retrieve measured protein stability index.
2

Param item = C15T ; retrieve measured protein stability index.
3.29

Param item = H3W ; retrieve measured protein stability index.
2.82

Param item = T6W ; retrieve measured protein stability index.
2

Param item = G19W ; retrieve measured protein stability index.
1.97
